Tested on: 354836-022-R-J1-PDC multicell spheroid viability
Assay: Anticancer human tumor 354836-022-R-J1-PDC patient-derived head and neck squamous cell carcinoma cell line growth inhibition [PI3K]
Conditions: second compound 1 µM; first compound 0.316 µM; hits give low values
EXPERIMENTAL READOUT: viability, T/C (%)
Just the number please, in %, no unit attached.

Completed entries (count: 3):
CCN1CCN(Cc2ccc(Nc3ncc(F)c(-c4cc(F)c5nc(C)n(C(C)C)c5c4)n3)nc2)CC1 + CC(Nc1ncnc2nc[nH]c12)c1cc2cccc(Cl)c2c(=O)n1-c1ccccc1    91.6
Cn1ncc(Cl)c1-c1cc(C(=O)NC(CN)Cc2cccc(F)c2)sc1Cl (stereo unspecified) + CC(Nc1ccc2c(c1)OCCn1cc(N3C(=O)OCC3C(F)F)nc1-2)C(N)=O    32.2
C#Cc1c(F)ccc2cc(O)cc(-c3ncc4c(N5CC6CCC(C5)N6)nc(OCC56CCCN5CC(F)C6)nc4c3F)c12 (stereo unspecified) + CC(Nc1ncnc2nc[nH]c12)c1cc2cccc(Cl)c2c(=O)n1-c1ccccc1    100

Input C[C@@H](NC(=O)c1ncnc(N)c1Cl)c1ncc(C(=O)Nc2cc(C(F)(F)F)c(Cl)cn2)s1 + CC(Nc1ccc2c(c1)OCCn1cc(N3C(=O)OCC3C(F)F)nc1-2)C(N)=O . Output viability, T/C: 62.9

Record summary for CC(C)NCC(C(=O)N1CCN(c2ncnc3c2C(C)CC3O)CC1)c1ccc(Cl)cc1 (stereo unspecified) + Cc1nc(NC(=O)N2CCCC2C(N)=O)sc1-c1ccnc(C(C)(C)C(F)(F)F)c1 : reported viability, T/C = 54.1

Recorded viability, T/C (compound CNC(=O)c1ccc(N2C(=S)N(c3ccc(C#N)c(C(F)(F)F)c3)C(=O)C2(C)C)cc1F + CC(Nc1ccc2c(c1)OCCn1cc(N3C(=O)OCC3C(F)F)nc1-2)C(N)=O ): 64.3

Entry CC1(C)CCC(Nc2ncc(C(F)(F)F)c(-c3c[nH]c4c(P(C)(C)=O)c(C#N)ccc34)n2)CN1 (stereo unspecified) + CC(Nc1ccc2c(c1)OCCn1cc(N3C(=O)OCC3C(F)F)nc1-2)C(N)=O , viability, T/C reported as 14.1

Record C#Cc1c(F)ccc2cc(O)cc(-c3ncc4c(N5CC6CCC(C5)N6)nc(OCC56CCCN5CC(F)C6)nc4c3F)c12 (stereo unspecified) + Cc1nc(NC(=O)N2CCCC2C(N)=O)sc1-c1ccnc(C(C)(C)C(F)(F)F)c1 , field viability, T/C: 77.8

The compound listed as Cn1nccc1Nc1nccc(-c2ccn(C(CO)c3ccc(Cl)c(F)c3)c(=O)c2)n1 (stereo unspecified) + Cc1nc(NC(=O)N2CCCC2C(N)=O)sc1-c1ccnc(C(C)(C)C(F)(F)F)c1 shows viability, T/C equal to 77.9

The value of viability, T/C measured for the compound C#Cc1c(F)ccc2cc(O)cc(-c3ncc4c(N5CC6CCC(C5)N6)nc(OCC56CCCN5CC(F)C6)nc4c3F)c12 (stereo unspecified) + CC(Nc1ccc2c(c1)OCCn1cc(N3C(=O)OCC3C(F)F)nc1-2)C(N)=O turned out to be 55.9

Per the records, this compound ( CC1(C)CCC(CN2CCN(c3ccc(C(=O)NS(=O)(=O)c4ccc(NCC5CCOCC5)c([N+](=O)[O-])c4)c(Oc4cnc5[nH]ccc5c4)c3)CC2)=C(c2ccc(Cl)cc2)C1 + Cc1nc(NC(=O)N2CCCC2C(N)=O)sc1-c1ccnc(C(C)(C)C(F)(F)F)c1 ) has viability, T/C equal to 88.4

###

Tested on: 354836-022-R-J1-PDC multicell spheroid viability
Assay: Anticancer human tumor 354836-022-R-J1-PDC cell line growth inhibition [PI3K];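 note: spheroids exposed to agents for seven days before the viability read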
Conditions: second compound 1 µM; first compound 0.0316 µM; hits give low values
EXPERIMENTAL READOUT: viability, T/C (%)
Only the number, expressed in %, is required.

Some molecules with recorded viability, T/C:
CC(C)n1nc(-c2ccc3oc(N)nc3c2)c2c(N)ncnc21 + CC(Nc1ncnc2nc[nH]c12)c1cc2cccc(Cl)c2c(=O)n1-c1ccccc1    31.6
CC(=O)c1c(C)c2cnc(Nc3ccc(N4CCNCC4)cn3)nc2n(C2CCCC2)c1=O + Cc1nc(NC(=O)N2CCCC2C(N)=O)sc1-c1ccnc(C(C)(C)C(F)(F)F)c1    73.5
CNC(=O)c1ccc(N2C(=S)N(c3ccc(C#N)c(C(F)(F)F)c3)C(=O)C2(C)C)cc1F + CC(Nc1ncnc2nc[nH]c12)c1cc2cccc(Cl)c2c(=O)n1-c1ccccc1    97

Recorded result, CC(Cn1ccc(-c2ccc(C#N)c(Cl)c2)n1)NC(=O)c1cc(C(C)O)[nH]n1 (centres undefined) + CC(Nc1ccc2c(c1)OCCn1cc(N3C(=O)OCC3C(F)F)nc1-2)C(N)=O , viability, T/C: 71.2

###

Below: a set of entries, each annotated with reported viability, T/C.
Test system: 354836-022-R-J1-PDC multicell spheroid viability
Assay: Anticancer human tumor 354836-022-R-J1-PDC cell line growth inhibition [PI3K];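 note: spheroids exposed to agents for seven days before the viability read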
Conditions: second compound 0.01 µM; first compound 0.316 µM; hits give low values
Text: Combinatorial screen of targeted agents with the PI3K inhibitors inavolisib, alpelisib, duvelisib, and copanlisib in multi-cell type tumor spheroids A high-throughput screen of multi-cell type tumor spheroids was designed to identify active combinations of targeted small molecules and PI3K pathway inhibitors. […] Compounds. […] If the clinical Cmax for an agent had not been determined, the highest concentration tested was 10 microM. […]
Report as a plain number; the unit % is understood.

Readout viability, T/C for CC(C)NCC(C(=O)N1CCN(c2ncnc3c2C(C)CC3O)CC1)c1ccc(Cl)cc1 (stereo not given) + COc1c(OCCCN2CCOCC2)ccc2c3n(c(=NC(=O)c4cnc(N)nc4)nc12)CCN3 , test system 354836-022-R-J1-PDC multicell spheroid viability, was 42.9

Result for Cn1nccc1Nc1nccc(-c2ccn(C(CO)c3ccc(Cl)c(F)c3)c(=O)c2)n1 (stereo not given) + CC(Nc1ccc2c(c1)OCCn1cc(N3C(=O)OCC3C(F)F)nc1-2)C(N)=O , tested on 354836-022-R-J1-PDC multicell spheroid viability, viability, T/C: 101

354836-022-R-J1-PDC multicell spheroid viability data for C[C@@H](NC(=O)c1ncnc(N)c1Cl)c1ncc(C(=O)Nc2cc(C(F)(F)F)c(Cl)cn2)s1 + COc1c(OCCCN2CCOCC2)ccc2c3n(c(=NC(=O)c4cnc(N)nc4)nc12)CCN3 ; its viability, T/C: 96.5

Value sought: viability, T/C, system 354836-022-R-J1-PDC multicell spheroid viability, item Cn1nccc1Nc1nccc(-c2ccn(C(CO)c3ccc(Cl)c(F)c3)c(=O)c2)n1 (stereo not given) + COc1c(OCCCN2CCOCC2)ccc2c3n(c(=NC(=O)c4cnc(N)nc4)nc12)CCN3 . Result: 88

Measured viability, T/C (354836-022-R-J1-PDC multicell spheroid viability), entry Cn1ncc(Cl)c1-c1cc(C(=O)NC(CN)Cc2cccc(F)c2)sc1Cl (stereo not given) + COc1c(OCCCN2CCOCC2)ccc2c3n(c(=NC(=O)c4cnc(N)nc4)nc12)CCN3 : 37.2

Record C#Cc1c(F)ccc2cc(O)cc(-c3ncc4c(N5CC6CCC(C5)N6)nc(OCC56CCCN5CC(F)C6)nc4c3F)c12 (stereo not given) + COc1c(OCCCN2CCOCC2)ccc2c3n(c(=NC(=O)c4cnc(N)nc4)nc12)CCN3 / 354836-022-R-J1-PDC multicell spheroid viability, viability, T/C recorded as 96.3

Observed viability, T/C on 354836-022-R-J1-PDC multicell spheroid viability, entry CNC(=O)c1ccc(N2C(=S)N(c3ccc(C#N)c(C(F)(F)F)c3)C(=O)C2(C)C)cc1F + CC(Nc1ccc2c(c1)OCCn1cc(N3C(=O)OCC3C(F)F)nc1-2)C(N)=O , equals 94.3

Entry CNC(=O)c1ccc(N2C(=S)N(c3ccc(C#N)c(C(F)(F)F)c3)C(=O)C2(C)C)cc1F + COc1c(OCCCN2CCOCC2)ccc2c3n(c(=NC(=O)c4cnc(N)nc4)nc12)CCN3 , 354836-022-R-J1-PDC multicell spheroid viability data, viability, T/C value: 92.7

Summary line: CCCS(=O)(=O)Nc1ccc(F)c(C(=O)c2c[nH]c3ncc(-c4ccc(Cl)cc4)cc23)c1F + CC(Nc1ccc2c(c1)OCCn1cc(N3C(=O)OCC3C(F)F)nc1-2)C(N)=O , 354836-022-R-J1-PDC multicell spheroid viability, reported viability, T/C = 117

Item: CC(C)NCC(C(=O)N1CCN(c2ncnc3c2C(C)CC3O)CC1)c1ccc(Cl)cc1 (stereo not given) + CC(Nc1ccc2c(c1)OCCn1cc(N3C(=O)OCC3C(F)F)nc1-2)C(N)=O | System: 354836-022-R-J1-PDC multicell spheroid viability | viability, T/C: 58.2
